Listing of entries alongside the reported Papp.
- method-summary: In situ single-pass intestinal perfusion (SPIP), saponins administrated in MDQ-TS form
- Type: in vivo, rat
- condition-parameters: male, Sprague-Dawley, rat, other: in situ single-pass intestinal perfusion, MDQ-TS form 2.5 mg·mL^−1, jejunum, n = 5
assay-endpoint: Papp (×10⁻⁶ cm/s)

{"columns": ["compound", "recorded-result"],
 "data": [
  ["CC1CCC2(C(=O)OC3OC(CO)C(O)C(O)C3O)CCC3(C)C(=CCC4C5(C)CCC(O)C(C)(C(=O)O)C5CCC43C)C2C1(C)O (centres unmarked)", 43.3],
  ["C[C@@H]1CC[C@]2(C(=O)O)CC[C@]3(C)C(=CC[C@@H]4[C@@]5(C)CC[C@H](O)[C@@](C)(C(=O)O)[C@@H]5CC[C@]43C)[C@@H]2[C@]1(C)O", 55]
]}

Reference source for all entries: paper PMC6150237
